Please respond with reported Fluorescence Intensity Geomean (normalized to background) for every item in the list.
# SYSTEM NAME: T1, human CD1c expressed on HEK-293 cells (human, UniProt P29017 18-333; P61769 21-119)
# T1 construct: also called HEK - CD1c
# EXPERIMENT: flow cytometry, HEK-293 cells, 3.16 µg/ml antibody
Answer format: numeric, fold over background implied, no suffix.

Fluorescence Intensity Geomean (normalized to background) recorded for this binder, 111 (VR12113) (antibody, V domains shown, also called OX111) VH: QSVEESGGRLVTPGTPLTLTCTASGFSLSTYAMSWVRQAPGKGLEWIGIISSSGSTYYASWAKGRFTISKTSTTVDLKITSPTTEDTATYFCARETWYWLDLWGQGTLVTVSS VL: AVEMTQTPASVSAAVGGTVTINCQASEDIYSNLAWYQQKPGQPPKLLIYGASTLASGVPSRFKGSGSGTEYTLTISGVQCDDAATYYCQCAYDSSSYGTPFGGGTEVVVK , is 1.1

Fluorescence Intensity Geomean (normalized to background) recorded for this binder, 110 (VR12112) (antibody, V domains shown, also called OX110; antibody 110) VH: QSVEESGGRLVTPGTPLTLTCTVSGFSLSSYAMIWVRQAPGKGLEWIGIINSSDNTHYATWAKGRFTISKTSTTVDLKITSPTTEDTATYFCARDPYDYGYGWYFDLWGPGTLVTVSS VL: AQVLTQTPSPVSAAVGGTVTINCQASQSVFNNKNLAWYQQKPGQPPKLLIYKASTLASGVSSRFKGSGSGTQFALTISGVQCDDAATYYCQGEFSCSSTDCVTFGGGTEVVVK , is 1.1

Fluorescence Intensity Geomean (normalized to background) recorded for this binder, 77A (VR11851) (antibody, V domains shown, also called OX77a; antibody 77a) VH: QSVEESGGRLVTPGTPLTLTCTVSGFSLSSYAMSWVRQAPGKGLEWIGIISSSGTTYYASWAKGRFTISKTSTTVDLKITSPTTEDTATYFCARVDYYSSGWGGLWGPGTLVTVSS VL: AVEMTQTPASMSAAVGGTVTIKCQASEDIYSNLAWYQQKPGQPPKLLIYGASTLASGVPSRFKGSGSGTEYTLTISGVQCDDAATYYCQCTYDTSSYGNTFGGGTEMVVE , is 0.9

Fluorescence Intensity Geomean (normalized to background) recorded for this binder, 116 (VR12117) (antibody, V domains shown, also called OX116) VH: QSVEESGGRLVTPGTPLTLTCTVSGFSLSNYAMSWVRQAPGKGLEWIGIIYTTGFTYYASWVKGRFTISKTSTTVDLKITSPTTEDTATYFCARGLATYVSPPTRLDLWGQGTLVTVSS VL: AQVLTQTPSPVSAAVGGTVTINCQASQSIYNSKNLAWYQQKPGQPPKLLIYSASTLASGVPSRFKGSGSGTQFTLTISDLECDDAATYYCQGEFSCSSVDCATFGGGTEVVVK , is 1.1
